# cytotoxicity at 10 µM per record follows
assay: Toxicity liver stage against HepG2, at 10uM; type: cell-based; set-up: test concentration 10 uM, cell line HepG2-A16-CD81EGFP; settings: human, HepG2-A16-CD81EGFP cells; read-out: INHIBITION
Write down the numeric answer in % and omit the unit.

// solved cases for cytotoxicity at 10 µM follow
Cc1nc(CN2CCN(c3ccc(SC(C)C)nn3)CC2)cs1 ... 5.71
CCn1nc(C)c(S(=O)(=O)Nc2cccc(C(=O)O)c2C)c1C ... -0.731

Entry CCn1ccnc1CNC1CC(=O)N(CCc2cccc(Cl)c2)C1 (centres undefined) ; cytotoxicity at 10 µM = -127

So for O=C(CNC(=O)c1cnc2ccccc2c1O)NCCn1ccnc1 , the logged cytotoxicity at 10 µM turned out to be -3.02
